- method: doxorubicin toxicity protection in MRP-1 cells – H69AR cells, CellTiter-Glo, duplicate, MRP-1 activator project, pilot screen (AID 807);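 further: compound pretreatment 18-22 h then 72 h combined with doxorubicin; 0% = doxorubicin alone and 100% = vehicle without doxorubicin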
- assay-conditions: H69AR viability with doxorubicin, CellTiter-Glo luminescence; at 10 µM; hits give high values
parameter: viability increase (%)
Use % as the unit, but write only the number.

{"columns": ["molecule", "viability increase (%)"],
 "data": [
  ["CC(CO)(CO)N=Cc1c(O)n(-c2cccc3ccccc23)c(=O)[nH]c1=O", -1.01]
]}

Problem: Record request: viability increase value, item CC1CCCCN1CC(=O)c1ccc2cc[nH]c2c1 (stereo unspecified)
Result: -2.48

Problem: # iterate: O=c1cccc2n1CC1CC2CN(c2ncnc3c2cnn3-c2ccccc2)C1 (stereo unspecified)
Result: -1.4

Problem: # iterate: "COc1ccccc1/C=C1/C(=N/O)C2CCN1CC2"
Result: -1.4

Problem: # iterate: CCOc1ccc(C2SCC(=O)Nc3c2c(=O)[nH]n3C2CCCCCC2)cc1 (stereo unspecified)
Result: -7.49

Problem: # iterate: NC(=O)CN1CC(c2ccccc2)CC1=O (stereo unspecified)
Result: -0.3

Problem: # iterate: CC12CN3CC(C)(CN(C1)C3c1ccco1)C2=O (stereo unspecified)
Result: -0.55

----------
- assayed-target: Pantothenate synthetase (Mycobacterium tuberculosis (strain ATCC 25618 / H37Rv))
- method: Coupled enzyme confirmation of inhibitors against recombinant Mtb PanC (AID 375);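 further: 0% = full reaction with vehicle and 100% = no enzyme background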
- assay-conditions: coupled enzyme assay; at 10 µM, hits give high values
parameter: inhibition (%)
Use % as the unit, but write only the number.

Reference set, count: 6
{"columns": ["compound", "assayed-target", "u", "inhibition"],
 "data": [
  ["CCOC(=O)N1CCC(NC(=O)c2ccc(CS(=O)(=O)c3c(Cl)cccc3Cl)o2)CC1", "Pantothenate synthetase (Mycobacterium tuberculosis (strain ATCC 25618 / H37Rv))", "%", 0],
  ["O=C(Nc1ccccc1)N(O)c1ccc(Cl)cc1", "Pantothenate synthetase (Mycobacterium tuberculosis (strain ATCC 25618 / H37Rv))", "%", 4],
  ["CCOc1ccc(-c2nc(S(=O)(=O)c3ccccc3)c(NCc3cccnc3)o2)cc1", "Pantothenate synthetase (Mycobacterium tuberculosis (strain ATCC 25618 / H37Rv))", "%", 0],
  ["CNC(=O)CN(C#N)c1nc(N(C)C)nc(N(C)C)n1", "Pantothenate synthetase (Mycobacterium tuberculosis (strain ATCC 25618 / H37Rv))", "%", 0],
  ["Fc1ccccc1-c1nc(NCCCN2CCOCC2)c2ccccc2n1", "Pantothenate synthetase (Mycobacterium tuberculosis (strain ATCC 25618 / H37Rv))", "%", 0],
  ["COCCn1nnnc1CN1CCC(Cc2ccccc2)CC1", "Pantothenate synthetase (Mycobacterium tuberculosis (strain ATCC 25618 / H37Rv))", "%", 0]
]}

Problem: Form field: inhibition recorded for "C/C(=C\C(=O)c1ccc(F)cc1)Nc1ccc(N2CCOCC2)cc1" with Pantothenate synthetase (Mycobacterium tuberculosis (strain ATCC 25618 / H37Rv)) (enter value)
Result: 0

Problem: # iterate: "CCSc1nc(-c2ccc(OC)cc2)ccc1C#N"
Result: 1

Problem: # iterate: Cc1c(NC(=O)C2CCCNC2=O)c(=O)n(-c2ccccc2)n1C (stereo unspecified)
Result: 0

Problem: # iterate: "S=c1nc(C2CC2)[nH]c2ccccc12"
Result: 0

Problem: # iterate: "COc1ccc(C(=O)c2ccccc2)c(O)c1"
Result: 1

----------
- assayed-target: Pantothenate synthetase (Mycobacterium tuberculosis (strain ATCC 25618 / H37Rv))
- method: Coupled enzyme confirmation of inhibitors against recombinant Mtb PanC (AID 375);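 further: 0% = full reaction with vehicle and 100% = no enzyme background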
- assay-conditions: coupled enzyme assay; at 10 µM, hits give high values
parameter: inhibition (%)
Use % as the unit, but write only the number.

Reference set, count: 5
{"columns": ["compound", "inhibition (%)"],
 "data": [
  ["CCCS(=O)(=O)N1CCC(C(=O)NCCN2CCCC2)CC1", 0],
  ["CC(=O)Nn1c(C)nnc1-n1nc(C)cc1C", 0],
  ["Cc1ccccc1-n1nnnc1SCC(=O)Nc1ccc(S(=O)(=O)N2CCCC2)cc1", 0],
  ["C#CCSc1nc(-c2cccs2)ccc1C#N", 0],
  ["Cc1nnc(NC(=O)CCC(=O)N2CCC(C)CC2)s1", 0]
]}

Problem: Record request: inhibition value, item "CCCCOn1c(C)c(C(=O)OCC)c2c3nonc3ccc21"
Result: 0

Problem: # iterate: "Cc1cc(NC(=O)COc2cccc(C)c2C)no1"
Result: 0

Problem: # iterate: "COc1ccc(N2CCN(C(=O)c3c(-c4ccccc4)noc3C)CC2)cc1"
Result: 0

Problem: # iterate: "CCOc1ccc(N(CC(=O)OC)S(=O)(=O)c2ccc(OC)c(OC)c2)cc1"
Result: 0

Problem: # iterate: "CN(c1ccc(OCc2nnc(-c3ccccc3)o2)cc1)S(=O)(=O)c1ccccc1"
Result: 0

Problem: # iterate: "CCN(CC)c1nc(N(CC)CC)[nH]c(=O)n1"
Result: 0

Problem: # iterate: "Cc1ccc(-c2nnc3c4ccccc4c(C)nn23)cc1S(=O)(=O)N1CCN(C)CC1"
Result: 1

Problem: # iterate: "NC(=O)COC(=O)c1ccc(S(=O)(=O)N2CCCCCC2)cc1"
Result: 0

Problem: # iterate: "O=C(O)COc1ccc(S(=O)(=O)NCCc2ccccc2)cc1"
Result: 6

Problem: # iterate: CCCOc1ccc(C2C(C(=O)c3ccc(C)o3)=C(O)C(=O)N2Cc2cccnc2)cc1 (configuration not stated)
Result: 10

----------
- assayed-target: Pantothenate synthetase (Mycobacterium tuberculosis (strain ATCC 25618 / H37Rv)) (UniProt P9WIL5)
- Sequence (P9WIL5 whole entry, looked up): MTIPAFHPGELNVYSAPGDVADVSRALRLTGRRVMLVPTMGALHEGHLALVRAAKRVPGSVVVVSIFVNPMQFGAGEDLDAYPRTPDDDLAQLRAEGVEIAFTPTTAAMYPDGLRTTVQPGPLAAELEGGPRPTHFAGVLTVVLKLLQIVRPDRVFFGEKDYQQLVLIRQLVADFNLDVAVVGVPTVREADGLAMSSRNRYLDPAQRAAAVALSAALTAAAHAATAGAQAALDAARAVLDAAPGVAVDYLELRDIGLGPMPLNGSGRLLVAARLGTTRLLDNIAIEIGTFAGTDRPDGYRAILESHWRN
- method: Coupled enzyme confirmation of inhibitors against recombinant Mtb PanC (AID 375);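 further: 0% = full reaction with vehicle and 100% = no enzyme background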
- assay-conditions: coupled enzyme assay; at 10 µM, hits give high values
Here, each record is paired with measured inhibition data.
Use % as the unit, but write only the number.

{"columns": ["compound", "parameter", "readout-number"],
 "data": [
  ["O=C(NC1CC2CCC1C2)c1ccc(CN2CCOCC2)cc1 (stereo unspecified)", "inhibition", 5]
]}

Problem: Record request: inhibition value, item Cc1ccc(NC2c3ncccc3C(=O)N2C2CCCCC2)cc1C (stereo unspecified)
Result: 0

----------
Here, each record is paired with measured viability data.
- method: H69AR cell proliferation blockers – human, duplicate replicates, primary screen (AID 580);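 further: 100% = mean luminescence of untreated wells and 0% = no signal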
- assay-conditions: H69AR lung tumor cells viability, ATP luminescence, 72 h; at 10 µM; hits give low values
Activity calls are given as the source filed them.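 Rule for the calls: active = viability at or under a set limit in both replicates, limit being median viability minus 3 SD (cut at about 48% in these data, passing the limit was not always enough); inconclusive = at or under the limit in just one replicate; inactive = at or above the limit in both replicates.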

Reference set, count: 3
{"columns": ["compound", "viability"],
 "data": [
  ["C[C@@]1(CO)[C@H](O)CC[C@@]2(C)[C@H]1CC[C@H]1C[C@@H]3C[C@@]12CC[C@]3(O)CO", "80.6% (inactive)"],
  ["CCCNS(=O)(=O)c1ccc(OCC(=O)N2CCN(Cc3ccccc3)CC2)cc1", "88.6% (inactive)"],
  ["CC[N+]1(C)CCCC(OC(=O)C(O)(c2ccccc2)c2ccccc2)C1 (stereo unspecified)", "101% (inactive)"]
]}

Problem: Record request: viability value, item "CCCCOc1ccc(CN2CCN(CCO)CC2)cc1"
Result: 90.1% (inactive)

Problem: # iterate: "CP(C)(=O)CCC(=O)O"
Result: 100% (inactive)

Problem: # iterate: "C[C@]12CCC(=O)C=C1CC[C@@H]1[C@@H]2CC[C@]2(C)C(=O)CC[C@@H]12"
Result: 85.3% (inactive)

----------
- method: MRP1 drug-resistance reversers in H69AR cells – cell-based, doxorubicin co-treatment, pilot screen (AID 601)
- assay-conditions: H69AR cells + 2 uM doxorubicin, CellTiter-Glo, 72 h; at 10 µM; hits give high values
Here, each record is paired with measured differential viability (reversal) data.
Use % as the unit, but write only the number.

Reference set, count: 5
{"columns": ["compound", "differential viability (reversal), %"],
 "data": [
  ["O=C(CN1CCN(Cc2cccc(Cl)c2)C1=O)N1CCC2(CC1)OCCO2", -2.12],
  ["CCOP(=S)(OCC)c1ccc(N(C)C)cc1", -9.22],
  ["CCOC(=O)C1CCCCC12C(C#N)=C(N)Oc1n[nH]c(C)c12 (stereo unspecified)", -6.3],
  ["CC(=NCc1cccnc1)c1c(O)n(Cc2ccccc2)c(=O)[nH]c1=O", -4.79],
  ["O=C(O)Cn1cc(C(=O)c2ccccc2)c2ccccc21", -1.34]
]}

Proceed to the following item.
Problem: Record request: differential viability (reversal) value, item "COc1ccccc1N(CC(=O)NC1CCCCC1)C(=O)c1cnn(C(C)C)c1"
Result: 8.82

----------
Here, each record is paired with measured growth inhibition data.
- method: S. cerevisiae growth inhibition in restrictive medium, OD615, pilot screen, restrictive growth control, yeast lifespan reduction project (AID 706);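 further: modified DeaD lifespan yeast strain shifted to restrictive glucose medium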
- assay-conditions: OD615, 48 h, at 10 µM, hits give high values
Use % as the unit, but write only the number.

{"columns": ["compound", "parameter", "u", "readout-number"],
 "data": [
  ["O=C(O)C1CSC(c2cccnc2)N1 (configuration not stated)", "growth inhibition", "%", -8.32],
  ["O=C(c1ccccc1)c1cn(CC(=O)N2CCCC2)c2ccccc12", "growth inhibition", "%", -16.4],
  ["Cn1c(O)c(C=NCCc2c[nH]c3ccccc23)c(=O)n(C)c1=O", "growth inhibition", "%", -3.75]
]}

Problem: Record request: growth inhibition value, item "Cn1cc(C(=O)c2ccccc2)c2ccccc21"
Result: 0.835

Problem: # iterate: Nc1ccc(S(=O)(=O)N2CC3CC(C2)c2cccc(=O)n2C3)cc1 (configuration not stated)
Result: 1.35

Problem: # iterate: "C=Cn1ccnc1P(=S)(c1ccn(C)c1)c1nccn1C=C"
Result: 18.6

Problem: # iterate: Cc1cc(C)n2c(Br)c(CN3CC4CC(C3)c3cccc(=O)n3C4)nc2n1 (configuration not stated)
Result: -5.3

Problem: # iterate: "CC(C)NS(=O)(=O)c1ccc(OCC(=O)N2CCN(C)CC2)cc1"
Result: -2.15

Problem: # iterate: O/N=C1\CCC2CN(C3CCCCC3)CC2C1 (configuration not stated)
Result: -1.4

Problem: # iterate: COc1cc2c(cc1OC)-c1c(OC)c(OC)cc3c1C(C2)N(C)CC3 (configuration not stated)
Result: 1.99

Problem: # iterate: "CC1(C)C(c2ccccc2)=NC(c2cccnc2)=[N+]1[O-]"
Result: -3.12

Problem: # iterate: "C=CCOC(=O)COc1cc(C)cc2oc(=O)c3c(c12)CCC3"
Result: -2.46
